Value source: PubChem BioAssay AID1963439

tested on: NCI-H196 complex spheroids with HUVEC/MSC, growth % T/C; test: Anticancer human tumor NCI-H196 cell line growth inhibition [Asc]; settings: curve of first compound; second compound 10 µM;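 note: spheroids exposed to compound for 7 days before measurement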
measure_name: IC50 (µM)
Give just the number in µM; leave the unit off.

Example entries and their recorded answers appear below.
Cc1nc(N2CCC3(CC2)COC(C)C3N)c(CO)nc1Sc1ccnc(N)c1Cl (configuration not stated) + Cc1c(S(C)(=O)=O)c(-c2cc(F)cc(N3CCN(c4ccc(NS(=O)(=O)c5ccc(NC(CCN6CCC(C(=O)OCCCP(=O)(O)O)CC6)CSc6ccccc6)c(S(=O)(=O)C(F)(F)F)c5)cc4)CC3)c2)c(-c2ccc(Cl)cc2)n1C(C)C	1.17
COc1c(OCCCN2CCOCC2)ccc2c3n(c(=NC(=O)c4cnc(N)nc4)nc12)CCN3 + Cc1c(S(C)(=O)=O)c(-c2cc(F)cc(N3CCN(c4ccc(NS(=O)(=O)c5ccc(NC(CCN6CCC(C(=O)OCCCP(=O)(O)O)CC6)CSc6ccccc6)c(S(=O)(=O)C(F)(F)F)c5)cc4)CC3)c2)c(-c2ccc(Cl)cc2)n1C(C)C	0.132

Proceed to the following item.
Per the records, this compound ( CCN1C(C(=O)NC23CCC(C(=O)O)(CC2)CC3)C(c2cccc(Cl)c2F)C2(C(=O)Nc3cc(Cl)ccc32)C12CCCCC2 (configuration not stated) + Cc1c(S(C)(=O)=O)c(-c2cc(F)cc(N3CCN(c4ccc(NS(=O)(=O)c5ccc(NC(CCN6CCC(C(=O)OCCCP(=O)(O)O)CC6)CSc6ccccc6)c(S(=O)(=O)C(F)(F)F)c5)cc4)CC3)c2)c(-c2ccc(Cl)cc2)n1C(C)C ) has IC50 equal to 1.66
